assay-details: NCI Yeast Anticancer Drug Screen. Data for the sgs1 mgt1 strain (AID 161);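 further: 0% = growth of cultures given vehicle only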
condition-details: S. cerevisiae sgs1 mgt1 strain, at 50.0 µM, stronger effect = higher value
Compounds without any hit were thinned out: in the full panel of roughly 79,000, 15% have a hit. Activity calls are given as the source filed them. No stated cut-off is given here; in the data, active means growth inhibition above about 70%; inactive means the rest.
Listing of recorded growth inhibition by entry.

Worked examples, 5 molecules total:
[
  {
    "molecule": "CN(Cc1nc2c(N)nc(N)nc2nc1N)c1ccc(C(=O)NC(CCC(=O)O)C(=O)O)cc1 (stereo unspecified)",
    "growth inhibition": "22.3% (inactive)"
  },
  {
    "molecule": "O=[N+]([O-])c1ccc(-n2cccc2)cc1",
    "growth inhibition": "-0.55% (inactive)"
  },
  {
    "molecule": "CC(=O)OC(c1ccccc1)C1(c2ccccc2)OCCO1 (stereo unspecified)",
    "growth inhibition": "5.75% (inactive)"
  },
  {
    "molecule": "O=[N+]([O-])c1ccc(N/N=C2\\C=CCCC2)c([N+](=O)[O-])c1",
    "growth inhibition": "-13% (inactive)"
  },
  {
    "molecule": "CCCCCc1nnc2n1N=C(c1ccc(Cl)cc1)CS2",
    "growth inhibition": "-2.5% (inactive)"
  }
]

Kindly consider the entry below.
What value of growth inhibition has been reported for the following molecule? `COC(=O)N/N=C/c1cccnc1`
-3.05% (inactive)

* * *

assay-details: NCI Yeast Anticancer Drug Screen. Data for the bub3 strain (AID 167)
condition-details: S. cerevisiae bub3 mutant strain, at 50.0 µM, stronger effect = higher value
Compounds without any hit were thinned out: in the full panel of roughly 79,000, 15% have a hit.
readout-name: growth inhibition (%)
// note: answer is a bare numeric in %

[
  {
    "compound": "COc1ccc(C(c2cc3c(cc2O)OCO3)N2CCOCC2)c(OC)c1 (stereo unspecified)",
    "growth inhibition / %": -29.6
  }
]

Now consider a different compound.
Entry `CN(C)CCNC(=O)c1nc([N+](=O)[O-])cn1C` : reported growth inhibition = ?
20.4

* * *

assay-details: NCI Yeast Anticancer Drug Screen. Data for the mec2-1 strain (AID 157)
condition-details: S. cerevisiae mec2-1 strain, at 50.0 µM
About 79,000 compounds went through this panel and 15% of them were active in at least one assay; those are over-represented in the sample as a whole. The source made the active and inactive calls. Cut-off read from the data, not from the text of the source: active = growth inhibition above about 70%; inactive = the rest.
The categories you may choose from are active, inactive

The examples below pair each entry with its known result.
[
  {
    "compound": "CC1=C(Br)C(=O)C(c2c(C)cc(C)cc2C)=C(Br)C1=O",
    "assigned-category": "active"
  },
  {
    "compound": "O=P(CCC(F)(F)C(F)(F)C(F)(F)C(F)(F)C(F)(F)C(F)(F)C(F)(F)F)(N1CC1)N1CC1",
    "assigned-category": "inactive"
  },
  {
    "compound": "COP(=O)(OC)C(NC(=O)C(F)(F)F)(c1ccccc1)C(F)(F)F (stereo unspecified)",
    "assigned-category": "inactive"
  },
  {
    "compound": "COC(=O)c1ccc(C(=O)OC)c2nc3cc(C)ccc3nc12",
    "assigned-category": "inactive"
  },
  {
    "compound": "CCOC(=O)N[n+]1ccccc1",
    "assigned-category": "inactive"
  },
  {
    "compound": "CCOC(=O)C(CC)N1C(=O)c2ccccc2S1(=O)=O (stereo unspecified)",
    "assigned-category": "inactive"
  }
]

What call does the record list for `O=[N+]([O-])C(C(Cl)=C(Cl)Cl)=C(N1CCCCC1)N1CCCCC1` ?
inactive

Give the logged outcome of this assay for the following compound: O=CNCC(O)c1ccc2c(c1)[nH]c1ccccc12 (stereo unspecified)
inactive

So what was the verdict on `CCN(CC)C(=O)/C(C)=C(\C)c1ccccc1` in this test?
inactive

Per the assay record, what outcome was assigned to `O=C1C(OCc2ccccc2)=C(OCc2ccccc2)C(=O)c2ccccc21` ?
inactive

# fetch the recorded call for `CCC(=O)CCc1ccc2ccccc2c1` here
inactive

* * *

growth inhibition listing for selected molecules.
assay-details: NCI Yeast Anticancer Drug Screen. Data for the mec2-1 strain (AID 157)
condition-details: S. cerevisiae mec2-1 strain, at 50.0 µM, stronger effect = higher value
About 79,000 compounds went through this panel and 15% of them were active in at least one assay; those are over-represented in the sample as a whole.
Please reply with the bare figure in % and do not write the unit itself.

[
  {
    "molecule": "COc1ccc(N=Cc2ccc(N(CCC#N)S(=O)(=O)c3ccccc3)cc2)cc1",
    "growth inhibition [%]": -13.3
  },
  {
    "molecule": "Cc1cc(=O)oc2c(C)c3oc4c(c3cc12)CN(C)CC4",
    "growth inhibition [%]": 10.9
  },
  {
    "molecule": "CC(C)(O)c1ccccc1[S+]1OC(C)(C)c2ccccc21 (stereo unspecified)",
    "growth inhibition [%]": 17.6
  },
  {
    "molecule": "O=C1C(Cc2ccc(O)cc2)NC(=S)N1c1ccccc1 (stereo unspecified)",
    "growth inhibition [%]": -9.85
  },
  {
    "molecule": "N#CCOc1ccc(Cl)cc1",
    "growth inhibition [%]": -16.2
  },
  {
    "molecule": "O=C1OCCC1=P(c1ccccc1)(c1ccccc1)c1ccccc1",
    "growth inhibition [%]": -30.9
  },
  {
    "molecule": "CCCCNc1nc(C#N)c(N)s1",
    "growth inhibition [%]": -3.35
  },
  {
    "molecule": "O=C1OC(/C=C/c2ccccc2)C(=O)C1=O (stereo unspecified)",
    "growth inhibition [%]": -4.55
  }
]

Data request, read-out growth inhibition, for `CC(=S)NC=C(C(N)=O)C(N)=O`
1.05

What does the data say about its growth inhibition? Entry: `COc1ccc(C(=O)c2ccccc2)c(O)c1`
1.8

What value of growth inhibition has been recorded for this entry: `CCC(=O)Oc1ccc(C(C)(C)CC(C)(C)C)cc1`
-8.85

So what does the record say about growth inhibition for `CCOc1ccc(C2=C/C(=C/c3cccs3)C(=O)O2)cc1` ?
-7.2

Quick check: growth inhibition of `CNC(=O)c1nnn(Cc2ccc(OC)cc2)c1Cl` ?
-8.9

What does the data say about its growth inhibition? Entry: CCC1COC(Nc2cccc3c2CCCC3)=N1 (stereo unspecified)
-6.7

Please look up its growth inhibition: `CN(C)CCCNc1cc[n+](C)c2cccc([N+](=O)[O-])c12`
15.4

What value of growth inhibition has been recorded for this entry: `CCCCCc1nnc2n1N=C(c1ccc(Cl)cc1)CS2`
-13.9

Name the reported growth inhibition value associated with the molecule CCOCC1c2ccccc2CCN1Cc1c[nH]c2ccccc12 (stereo unspecified)
-21.2

* * *

assay-details: NCI Yeast Anticancer Drug Screen. Data for the mec2-1 strain (AID 157)
condition-details: S. cerevisiae mec2-1 strain, at 50.0 µM, stronger effect = higher value
Compounds without any hit were thinned out: in the full panel of roughly 79,000, 15% have a hit.
readout-name: growth inhibition (%)
Enter your answer as a number in %; do not include the unit.

[
  {
    "compound": "COc1ccc(/C=N/N2CCN(/N=C/c3ccc(OC)cc3)CC2)cc1",
    "endpoint-unit": "%",
    "result-value": 9.7
  },
  {
    "compound": "Cc1ccc(NC(=S)N(C)C)cc1",
    "endpoint-unit": "%",
    "result-value": 15.9
  },
  {
    "compound": "FC(F)(F)C(c1ccc(Cl)cc1)c1ccc(Cl)cc1",
    "endpoint-unit": "%",
    "result-value": 28.8
  },
  {
    "compound": "Cc1ccc(N=Nc2c(O)ccc3n[nH]nc23)cc1",
    "endpoint-unit": "%",
    "result-value": 0.2
  }
]

What value of measured growth inhibition is listed for `CCOC(=O)c1c(N)n(-c2ccccc2)c(=O)n(-c2ccccc2)c1=O` ?
-5.3

Please look up its growth inhibition: `c1nnco1`
0.75

Need growth inhibition, item CCC(=O)NC(C(=O)O)C(C)(C)S (configuration not stated)
-3.65

* * *

assay-details: NCI Yeast Anticancer Drug Screen. Data for the cln2 rad14 strain (AID 165);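 further: 0% = growth equal to vehicle treated cultures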
condition-details: S. cerevisiae cln2 rad14 strain, at 50.0 µM, stronger effect = higher value
Protocol: Growth inhibition of yeast strains with defined genetic alterations is measured as a screen for potential anti-cancer activity. Selected strains with alterations in DNA damage repair or cell cycle control were exposed to compounds and growth inhibition was measured relative to vehicle treated controls. The strain used in this assay is cln2 rad14
The panel holds about 79,000 compounds, 15% with a hit somewhere; the sample as a whole holds those more often.
readout-name: growth inhibition (%)
All answers are understood in %, so give the number only.

Worked examples follow.
[
  {
    "compound": "CC(=O)OCC/C=C\\CCCOC(C)=O",
    "readout-name": "growth inhibition",
    "result-value": -1.75
  },
  {
    "compound": "O[C@H]1[C@H]2c3cc4c(cc3CN3CCC(C[C@@H]1O)[C@H]23)OCO4 (stereo partly drawn)",
    "readout-name": "growth inhibition",
    "result-value": 20.3
  }
]

Now turn to the next compound.
What does the record list as growth inhibition for `C=CCCCCCCCCC(=O)NCC1CC1` ?
-44.8
